# target of assay: human ether-à-go-go-related gene (hERG) potassium channel (human, UniProt Q12809);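 also: peak tail current of the secondary pulse compared with the same well before compound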
# Sequence (Q12809 whole entry, looked up): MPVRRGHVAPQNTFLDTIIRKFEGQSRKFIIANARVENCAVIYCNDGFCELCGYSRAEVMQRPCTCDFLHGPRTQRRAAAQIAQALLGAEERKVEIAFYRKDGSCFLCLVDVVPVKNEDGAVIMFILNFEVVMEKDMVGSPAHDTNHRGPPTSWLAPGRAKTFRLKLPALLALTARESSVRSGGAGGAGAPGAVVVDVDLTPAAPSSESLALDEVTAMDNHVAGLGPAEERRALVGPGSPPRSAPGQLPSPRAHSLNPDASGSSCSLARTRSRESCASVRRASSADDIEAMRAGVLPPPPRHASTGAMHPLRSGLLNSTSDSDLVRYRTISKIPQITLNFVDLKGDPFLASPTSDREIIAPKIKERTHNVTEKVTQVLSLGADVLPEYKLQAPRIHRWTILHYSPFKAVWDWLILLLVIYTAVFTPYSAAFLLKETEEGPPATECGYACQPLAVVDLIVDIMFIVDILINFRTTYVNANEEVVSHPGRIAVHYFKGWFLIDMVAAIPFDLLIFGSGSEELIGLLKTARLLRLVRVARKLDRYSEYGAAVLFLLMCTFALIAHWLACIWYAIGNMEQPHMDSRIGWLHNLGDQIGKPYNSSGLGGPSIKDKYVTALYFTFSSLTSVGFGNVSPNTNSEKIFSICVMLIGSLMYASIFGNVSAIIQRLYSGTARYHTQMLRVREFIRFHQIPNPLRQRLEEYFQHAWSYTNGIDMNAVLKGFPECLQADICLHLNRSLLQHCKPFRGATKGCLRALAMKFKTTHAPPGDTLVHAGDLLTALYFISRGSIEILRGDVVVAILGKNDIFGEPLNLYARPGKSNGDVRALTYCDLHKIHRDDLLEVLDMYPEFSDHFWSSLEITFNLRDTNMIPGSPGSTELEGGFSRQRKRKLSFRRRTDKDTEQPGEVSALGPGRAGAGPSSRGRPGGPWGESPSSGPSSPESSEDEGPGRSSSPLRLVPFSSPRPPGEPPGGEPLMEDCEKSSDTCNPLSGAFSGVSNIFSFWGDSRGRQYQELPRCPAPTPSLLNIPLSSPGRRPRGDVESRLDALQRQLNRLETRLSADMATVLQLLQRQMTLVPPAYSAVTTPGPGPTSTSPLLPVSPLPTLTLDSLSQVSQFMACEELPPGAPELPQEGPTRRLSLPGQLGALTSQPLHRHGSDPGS
# test description: primary screen, population patch clamp on CHO cells stably expressing hERG; higher = less effect of the substance
Screen size: about 310,000 compounds; about 14,000 (4.5%) showed an effect of 50% or more. Effects have a minus sign here. This is one part of a sample in which strong results are shown more often than they occur.
Measured hERG current change (%, negative = inhibition) at 10uM, listed per entry.
measured attribute: hERG current change (%, negative = inhibition) at 10uM (%)

| molecule | target of assay | test value |
| --- | --- | --- |
| CCC(C)NC(=O)C1CCN(CCCc2ccccc2)CC1.O=C(O)C(=O)O (centres unmarked) | human ether-à-go-go-related gene (hERG) potassium channel (human, UniProt Q12809) | -1.26 |
| CCN(CC)C(=O)C1CCN(CC2CC=CCC2)CC1 (centres unmarked) | human ether-à-go-go-related gene (hERG) potassium channel (human, UniProt Q12809) | -0.0716 |
| CCN(CC)C(=O)C1CCCN(Cc2sccc2C)C1 (centres unmarked) | human ether-à-go-go-related gene (hERG) potassium channel (human, UniProt Q12809) | 11.6 |
| O=C(C1CCN(CC2CC=CCC2)CC1)N(CCc1ccccc1)Cc1ccccc1 (centres unmarked) | human ether-à-go-go-related gene (hERG) potassium channel (human, UniProt Q12809) | -72 |
| O=C(C1CC1)N(CCN(Cc1ccccc1)C(=O)C1CC1)Cc1ccccc1 | human ether-à-go-go-related gene (hERG) potassium channel (human, UniProt Q12809) | -28.9 |
